All figures here come from patent EP4722219A1.

# Test system: T-47D cells
# ASSAY: Inhibition of cell proliferation in T-47D cells (CCK-8)
# Type: cell-based
# ASSAY_CONDITIONS: Homo sapiens, T47D, 144 h, 6 days treatment, CCK-8 cell viability
EXPERIMENTAL_ENDPOINT: pIC50
pIC50 is a log-scale quantity: -log10 of the concentration expressed in molar.

Cn1c(=O)n(C2CCC(=O)NC2=O)c2cc3c(cc21)C1(CCN(C(=O)CN2CCC4(CCN(c5ccc([C@@H]6c7ccc(O)cc7CC[C@@H]6c6ccccc6)cc5)CC4)C2)CC1)CO3 (stereo partly shown) : 9.55

Task: Retrieve pIC50 measured for Cn1c(=O)n(C2CCC(=O)NC2=O)c2ccc3c(c21)OCC31CCN(C(=O)C2CCN(CC3CCN(c4ccc([C@@H]5c6ccc(O)cc6CC[C@@H]5c5ccccc5)cc4)CC3)CC2)CC1 (stereo partly shown) and print it.
Output: 8.91

Task: Retrieve pIC50 measured for O=C1CCC(Nc2ccc3c(c2)OC[C@@H]2CN(C4CC5(CCN(c6ccc([C@@H]7c8ccc(O)cc8CC[C@@H]7c7ccccc7)cc6)CC5)C4)CCN32)C(=O)N1 (stereo partly shown) and print it.
Output: 7.64

Task: Retrieve pIC50 measured for Cn1c(=O)n(C2CCC(=O)NC2=O)c2cc3c(cc21)C1(CCN(CC2CCC4(CC2)CCN(c2ccc([C@@H]5c6ccc(O)cc6CC[C@@H]5c5ccccc5)cc2)CC4)CC1)CO3 (stereo partly shown) and print it.
Output: 8.58

Task: Retrieve pIC50 measured for `O=C1CC[C@H](NC(=O)c2ccc3c(c2F)OCC32CCN(C3CCC4(CC3)CN(c3ccc([C@@H]5c6ccc(O)cc6CC[C@@H]5c5ccccc5)cc3)C4)CC2)C(=O)N1` and print it.
Output: 7.73

Task: Retrieve pIC50 measured for O=C1CCC(n2c(=O)n3c4c(cccc42)N(C[C@H]2CC[C@@H](OC4CCN(c5ccc([C@@H]6c7ccc(O)cc7CC[C@@H]6c6ccccc6)cc5)CC4)CC2)CC3)C(=O)N1 (stereo partly shown) and print it.
Output: 7.37

Task: Retrieve pIC50 measured for O=C1CCC(N2Cc3c(ccc4c3OCC43CCC4(CCN(C(=O)C5CCN(c6ccc([C@@H]7c8ccc(O)cc8CC[C@@H]7c7ccccc7)cc6)CC5)CC4)CC3)C2=O)C(=O)N1 (stereo partly shown) and print it.
Output: 8.24

Task: Retrieve pIC50 measured for CN(C(=O)CN1CCC2(CC1)COc1c2ccc2c1n(C)c(=O)n2C1CCC(=O)NC1=O)C1CCC2(CC1)CN(c1ccc([C@@H]3c4ccc(O)cc4CC[C@@H]3c3ccccc3)cc1)C2 (stereo partly shown) and print it.
Output: 8.82

Task: Retrieve pIC50 measured for O=C1CCC(Nc2ccc3c(c2)OC2(CC3)CN(C[C@H]3CC[C@@H](OC4CCN(c5ccc([C@@H]6c7ccc(O)cc7CC[C@@H]6c6ccccc6)cc5)CC4)CC3)C2)C(=O)N1 (stereo partly shown) and print it.
Output: 7.81

Task: Retrieve pIC50 measured for O=C1CCC(Nc2ccc3c(c2)COC[C@H]2CN(C[C@H]4CC[C@@H](OC5CCN(c6ccc([C@@H]7c8ccc(O)cc8CC[C@@H]7c7ccccc7)cc6)CC5)CC4)CCN32)C(=O)N1 (stereo partly shown) and print it.
Output: 7.57

----------
Examples of compounds with documented Degradation rate of ERα in MCF-7 cells (%) follow.
# SYSTEM_UNDER_TEST: UniProt P03372
# ASSAY: ERα degradation in MCF-7 cells (Western blot)
# Assay type: cell-based
# Set-up: host or cells: MCF-7
# ASSAY_CONDITIONS: 10nM, 4 hours
The answer is to be given in %; state only the numeric part.

Please review the following examples before continuing.
Cn1c(=O)n(C2CCC(=O)NC2=O)c2ccc3c(c21)C1(CCN(C[C@H]2CC[C@@H](OC4CCN(c5ccc([C@@H]6c7ccc(O)cc7CC[C@@H]6c6ccccc6)cc5)CC4)CC2)CC1)CO3 (stereo partly drawn) : 30
O=C1CCC(N2Cc3c(ccc4c3OCC43CCC4(CC3)CN(C3CCN(C(=O)C5CCN(c6ccc([C@@H]7c8ccc(O)cc8CC[C@@H]7c7ccccc7)cc6)CC5)CC3)C4)C2=O)C(=O)N1 (stereo partly drawn) : 71
CN(C(=O)CN1CCC2(CC1)COc1c2ccc(F)c1C(=O)N[C@H]1CCC(=O)NC1=O)C1CCC2(CC1)CN(c1ccc([C@@H]3c4ccc(O)cc4CC[C@@H]3c3ccccc3)cc1)C2 : -53
O=C1CCC(N2Cc3c(ccc4c3OCC43CCC4(CCN(C5CCN(c6ccc([C@@H]7c8ccc(O)cc8CC[C@@H]7c7ccccc7)cc6)CC5)CC4)CC3)C2=O)C(=O)N1 (stereo partly drawn) : 69
CN(C(=O)CN1CCC2(CC1)COc1c2ccc2c1n(C)c(=O)n2C1CCC(=O)NC1=O)C1CCC2(CC1)CN(c1ccc([C@@H]3c4ccc(O)cc4CC[C@@H]3c3ccccc3)cc1)C2 (stereo partly drawn) : 57

Task: State measured Degradation rate of ERα in MCF-7 cells (%) of the compound `O=C1CC[C@H](NC(=O)c2ccc3c(c2F)OCC32CCN(C3CC4(CCN(c5ccc([C@@H]6c7ccc(O)cc7CC[C@@H]6c6ccccc6)cc5)CC4)C3)CC2)C(=O)N1` with UniProt P03372.
Output: -9

Task: State measured Degradation rate of ERα in MCF-7 cells (%) of the compound O=C1CC[C@H](NC(=O)c2ccc3c(c2)OCC[C@H]2CN(CC4CCC(OC5CCN(c6ccc([C@@H]7c8ccc(O)cc8CC[C@@H]7c7ccccc7)cc6)CC5)CC4)CCN32)C(=O)N1 (stereo partly drawn) [ER-P-44] with UniProt P03372.
Output: 39

Task: State measured Degradation rate of ERα in MCF-7 cells (%) of the compound O=C1CCC(N2Cc3c(ccc4c3OCC43CCC4(CC3)CN(C(=O)C3CCN(c5ccc([C@@H]6c7ccc(O)cc7CC[C@@H]6c6ccccc6)cc5)CC3)C4)C2=O)C(=O)N1 (stereo partly drawn) with UniProt P03372.
Output: 20

----------
Examples of compounds with documented Degradation rate of ERα in MCF-7 cells (%) follow.
# SYSTEM_UNDER_TEST: ERα (Homo sapiens, UniProt P03372)
# Sequence (P03372 whole entry): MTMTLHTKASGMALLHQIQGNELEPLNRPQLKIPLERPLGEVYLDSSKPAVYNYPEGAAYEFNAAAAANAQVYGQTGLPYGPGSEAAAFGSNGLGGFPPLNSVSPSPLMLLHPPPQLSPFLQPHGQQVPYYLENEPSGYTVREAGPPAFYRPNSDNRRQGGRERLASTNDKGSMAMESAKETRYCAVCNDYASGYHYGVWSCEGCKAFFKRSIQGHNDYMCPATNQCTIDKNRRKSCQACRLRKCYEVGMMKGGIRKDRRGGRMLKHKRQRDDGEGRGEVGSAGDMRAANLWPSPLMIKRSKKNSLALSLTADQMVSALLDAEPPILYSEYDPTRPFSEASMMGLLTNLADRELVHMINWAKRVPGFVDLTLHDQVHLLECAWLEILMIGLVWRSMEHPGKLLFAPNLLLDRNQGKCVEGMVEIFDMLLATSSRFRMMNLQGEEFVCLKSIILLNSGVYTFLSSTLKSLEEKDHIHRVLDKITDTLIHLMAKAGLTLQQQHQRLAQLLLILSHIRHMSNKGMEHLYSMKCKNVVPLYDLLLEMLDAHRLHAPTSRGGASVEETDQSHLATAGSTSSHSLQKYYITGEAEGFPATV
# ASSAY: ERα degradation in MCF-7 cells (Western blot)
# Assay type: cell-based
# Parameters: host or cells: MCF-7
# ASSAY_CONDITIONS: 1nM, 4 hours
The answer is to be given in %; state only the numeric part.

Please review the following examples before continuing.
Cn1c(=O)n(C2CCC(=O)NC2=O)c2cc3c(cc21)C1(CCN(C2CCC4(CC2)CN(c2ccc([C@@H]5c6ccc(O)cc6CC[C@@H]5c5ccccc5)cc2)C4)CC1)CO3 (stereo partly drawn) [ER-P-59] : 14
Cn1c(=O)n(C2CCC(=O)NC2=O)c2ccc3c(c21)C1(CCN(C(=O)[C@H]2CC[C@H](CN4CCN(c5ccc([C@@H]6c7ccc(O)cc7CC[C@@H]6c6ccccc6)cc5)CC4)CC2)CC1)CO3 (stereo partly drawn) [ER-P-7] : 22

Okay, now this compound:
Task: Retrieve Degradation rate of ERα in MCF-7 cells (%) measured for CN(C(=O)CN1CCC2(CC1)COc1c2ccc2c1n(C)c(=O)n2C1CCC(=O)NC1=O)C1CCC2(CC1)CN(c1ccc([C@@H]3c4ccc(O)cc4CC[C@@H]3c3ccccc3)cc1)C2 (stereo partly drawn) [ER-P-64] and print it.
Output: 46

----------
# SYSTEM_UNDER_TEST: SMARCA2 (Homo sapiens, UniProt P51531)
# Sequence (P51531 whole entry): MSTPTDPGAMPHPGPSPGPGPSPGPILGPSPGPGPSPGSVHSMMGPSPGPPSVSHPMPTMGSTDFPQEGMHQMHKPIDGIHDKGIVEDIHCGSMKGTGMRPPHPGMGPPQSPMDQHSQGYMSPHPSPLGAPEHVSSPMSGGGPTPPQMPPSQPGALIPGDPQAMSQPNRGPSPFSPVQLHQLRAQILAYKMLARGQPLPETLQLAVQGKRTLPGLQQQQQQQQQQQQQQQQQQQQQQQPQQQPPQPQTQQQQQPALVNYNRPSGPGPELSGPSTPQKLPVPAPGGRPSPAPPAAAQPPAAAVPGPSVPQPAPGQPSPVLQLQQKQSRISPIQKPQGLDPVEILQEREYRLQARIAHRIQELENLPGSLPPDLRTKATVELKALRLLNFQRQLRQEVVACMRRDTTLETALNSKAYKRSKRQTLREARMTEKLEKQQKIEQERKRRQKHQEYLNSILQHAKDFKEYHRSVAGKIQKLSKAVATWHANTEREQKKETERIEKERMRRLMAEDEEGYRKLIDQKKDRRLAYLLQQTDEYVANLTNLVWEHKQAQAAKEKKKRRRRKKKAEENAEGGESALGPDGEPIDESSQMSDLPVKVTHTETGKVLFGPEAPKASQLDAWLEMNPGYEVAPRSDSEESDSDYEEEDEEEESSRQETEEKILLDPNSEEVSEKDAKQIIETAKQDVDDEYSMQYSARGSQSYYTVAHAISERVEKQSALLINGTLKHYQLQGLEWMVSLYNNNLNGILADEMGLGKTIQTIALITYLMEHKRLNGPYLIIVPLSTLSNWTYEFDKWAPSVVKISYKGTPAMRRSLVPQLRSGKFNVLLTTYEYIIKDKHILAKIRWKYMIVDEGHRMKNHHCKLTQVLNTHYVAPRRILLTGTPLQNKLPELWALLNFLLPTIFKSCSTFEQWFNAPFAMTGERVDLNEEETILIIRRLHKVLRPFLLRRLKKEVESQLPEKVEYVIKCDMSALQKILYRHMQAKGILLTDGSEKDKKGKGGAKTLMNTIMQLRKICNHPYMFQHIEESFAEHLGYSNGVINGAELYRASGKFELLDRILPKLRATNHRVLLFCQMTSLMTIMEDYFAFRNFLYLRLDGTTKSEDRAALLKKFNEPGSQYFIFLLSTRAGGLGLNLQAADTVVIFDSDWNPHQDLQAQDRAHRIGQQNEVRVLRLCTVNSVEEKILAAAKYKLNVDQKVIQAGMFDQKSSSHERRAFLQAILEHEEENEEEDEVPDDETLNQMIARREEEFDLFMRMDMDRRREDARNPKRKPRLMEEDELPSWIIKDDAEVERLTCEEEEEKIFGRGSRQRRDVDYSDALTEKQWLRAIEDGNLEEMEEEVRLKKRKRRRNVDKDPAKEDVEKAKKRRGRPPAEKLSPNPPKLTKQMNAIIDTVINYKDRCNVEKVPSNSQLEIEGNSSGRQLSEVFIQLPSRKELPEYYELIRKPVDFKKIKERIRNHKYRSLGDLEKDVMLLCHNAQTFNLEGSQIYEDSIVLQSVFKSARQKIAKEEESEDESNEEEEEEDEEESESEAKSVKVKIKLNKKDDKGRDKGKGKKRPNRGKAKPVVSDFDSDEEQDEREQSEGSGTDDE
# ASSAY: SMARCA2 degradation in HeLa cells (Western blot)
# Format: cell-based
# Design: endogenous in cells
# ASSAY_CONDITIONS: 80 nM, 4 hours
Each entry gets not fulfilled if its Degradation rate of SMARCA2 in HeLa cells (%) stays under 90%, and fulfilled if its Degradation rate of SMARCA2 in HeLa cells (%) is 90% or above.

Solved cases below.
Cn1c(=O)n(C2CCC(=O)NC2=O)c2ccc3c(c21)OCC31CCN(C[C@H]2CC[C@H](n3cc(-c4cc(-c5ccccc5O)nnc4N)cn3)CC2)CC1 (stereo partly drawn) [SM-P-35] : fulfilled
Nc1nnc(-c2ccccc2O)cc1C#CC1CCC2(CC1)CC(N1CCC3(CC1)COc1cc(C(=O)N[C@H]4CCC(=O)NC4=O)c(F)cc13)C2 (stereo partly drawn) [SM-P-8] : not fulfilled
Nc1nnc(-c2ccccc2O)cc1C#CC1CCC2(CC1)CC(N1CCC3(CC1)COc1cc(F)c(C(=O)N[C@H]4CCC(=O)NC4=O)cc13)C2 (stereo partly drawn) [SM-P-21] : not fulfilled
Nc1nnc(-c2ccccc2O)cc1C#CC1CCC2(CC1)CC(N1CCC3(CC1)Cc1ccc(NC4CCC(=O)NC4=O)cc1O3)C2 (stereo not drawn) [SM-P-25] : not fulfilled
Nc1nnc(-c2ccccc2O)cc1C#CC1CCC2(CC1)CC(N1CCC3(CC1)COc1c3ccc(F)c1C(=O)N[C@H]1CCC(=O)NC1=O)C2 (stereo partly drawn) [SM-P-19] : not fulfilled

Task: Given Cn1c(=O)n(C2CCC(=O)NC2=O)c2ccc3c(c21)OCC31CCN(C2CC3(CCC(C#Cc4cc(-c5ccccc5O)nnc4N)CC3)C2)CC1 (stereo not drawn) [SM-P-26] , state whether its Degradation rate of SMARCA2 in HeLa cells (%) is at least 90%.
Output: fulfilled

Task: Given Cn1c(=O)n(C2CCC(=O)NC2=O)c2cc3c(cc21)C1(CCN(C2CC4(CCC(C#Cc5cc(-c6ccccc6O)nnc5N)CC4)C2)CC1)CO3 (stereo not drawn) [SM-P-4] , state whether its Degradation rate of SMARCA2 in HeLa cells (%) is at least 90%.
Output: fulfilled

Task: Given Cn1c(=O)n(C2CCC(=O)NC2=O)c2cc3c(cc21)C1(CCN(C2CN(c4cc(-c5ccccc5O)nnc4N)C2)CC1)CO3 (stereo not drawn) [SM-P-38] , state whether its Degradation rate of SMARCA2 in HeLa cells (%) is at least 90%.
Output: not fulfilled

Task: Given Cn1c(=O)n(C2CCC(=O)NC2=O)c2cc3c(cc21)C1(CCN(C[C@H]2CC[C@H](n4cc(-c5cc(-c6ccccc6O)nnc5N)cn4)CC2)CC1)CO3 (stereo partly drawn) [SM-P-36] , state whether its Degradation rate of SMARCA2 in HeLa cells (%) is at least 90%.
Output: fulfilled

Task: Given Cn1c(=O)n(C2CCC(=O)NC2=O)c2cc3c(cc21)C1(CCN(C(=O)[C@H]2CC[C@H](Cn4cc(-c5cc(-c6ccccc6O)nnc5N)cn4)CC2)CC1)CO3 (stereo partly drawn) [SM-P-28] , state whether its Degradation rate of SMARCA2 in HeLa cells (%) is at least 90%.
Output: fulfilled
